Assay Overview: yeast display, Sf9 membrane polyspecificity reagent, FACS + sequencing; frameworks hold sequencing errors
Metric: polyreactivity (PSR sort gate)

Reference set (4 entries):
Sequence Data | polyreactivity (PSR sort gate)
QVQLVESGGGLVQAGGSLRLSCAASGFIFAIYAMGWYRQAPGKERELVAAISSSGGSTYYADSVKGRFTISRDNAKNTVYLQMNSLKPEDTAVYYCNADWSLYWLDYWGQGTQVTVSS | high polyreactivity
QDQLVESRGGLVQAGGSLRLICDASGFTFDSNAMVWYRQEPGKERQLVAAISARGTSTYYADSVKGRFTISRDNAKNTVYLQMNSLKPEDTAVYDCNTGESSWYLPEEDYWGQGTQVTLSS | low polyreactivity
QVQLVESGGGLVQAGGSLRLSCAASGIIFLSYAIGWYRQAPGKERELFAAISSGVSTYSADSVKGRFTISRDNAKNPVYFQMNSLKPEDTAVYFCAAYYLWPGYQFRPYDYWGQGTQVTVSS | low polyreactivity
QVQLVESGGGLVQAGGSLRLSCAASGFTFSWYAMGWYRQAPGKERELVAAISSAGNTNYADSVKGRFTISRDNAKNTVYLQMNSLKPEDTAVYYCAKRDYWGQGTQVTVSS | high polyreactivity

# input for lookup
Problem: Answer with the recorded polyreactivity (PSR sort gate) of `QVQLVESGGGLVQAGGSLRLSCAASGRTFQYYAMGWYRQAPGKERELVAAISGIGTSTSYADSVKGRFTISRDNAKNTVYLQMNSLKPEDTAVYYCAARLLVPGSPWYTNYYWGQGTQVTVSS` only.
Solution: low polyreactivity
